Test system: SK-MEL-28 melanoma
PROCEDURE SUMMARY: NCI-60 one-dose screen, 48 h
TEST SETTINGS: 10 µM unless noted
Protocol: Growth inhibition of the SK-MEL-28 human tumor cell line is measured as a screen for anti-cancer activity. Cells are grown in 96 well plates and exposed to the test compound for 48 hours. Compounds are tested at a single concentration, which is 10^-5 M for most compounds. The reported endpoint is percent growth (GI% or GIPRCNT), where numbers from 0 - 100% represent growth inhibition, and numbers from -100% - 0 represent cell death. For example, a value of 40 represents 60% growth inhibition. […]
Compounds without any hit were thinned out: in the full panel of roughly 83,000, 20% have a hit. Calls of active or inactive are those of the source. The calls were made as follows: active = growth percent below 10; inactive = the rest.
Thanks in advance; please answer with one of these: active, inactive

Solved entries:
{"COMPOUND": "Cc1ccc(NC(=O)c2cc(-c3nc4ccccc4s3)c(=O)n(NS(=O)(=O)c3ccc(Cl)cc3)c2N)cc1", "CATEGORY": "inactive"}
{"COMPOUND": "CC(=O)c1ccc(NS(=O)(=O)c2cccc(C(=O)Nc3ccc(Br)cc3)c2)cc1", "CATEGORY": "inactive"}
{"COMPOUND": "CCCCCN1C=C/C(=C\\C(=O)N(C)c2ccccc2Br)c2ccccc21", "CATEGORY": "inactive"}

[in] State the result this test recorded for `O=C(/C=C(O)/C=C/c1ccc(SC(F)(F)F)cc1)/C=C/c1ccc(SC(F)(F)F)cc1` .
[out] inactive

[in] State the result this test recorded for `COc1ccc(CCn2cncc2-c2c[nH]c3ccccc23)cc1` .
[out] inactive

[in] State the result this test recorded for `CCCCCN1C=C/C(=C\C(=O)N(C)c2ccc(OC(F)(F)F)cc2)c2ccccc21` .
[out] inactive

[in] State the result this test recorded for `CN1C(N2CCN(S(=O)(=O)c3ccccc3)CC2)=NS(=O)(=O)c2ccccc21` .
[out] inactive

[in] State the result this test recorded for `COc1ccc(C(=O)c2nc3ccccc3n2CC(=O)c2ccc(F)cc2)cc1` .
[out] inactive

[in] State the result this test recorded for `CCN(CC)c1ccc(/C=N/NC(=O)CSc2nc3ccccc3c(=O)n2CCc2ccc(S(N)(=O)=O)cc2)c(O)c1` .
[out] inactive

[in] State the result this test recorded for `Cc1ccc(/C=N/NC(=O)CSc2nc3ccccc3c(=O)n2Cc2ccc(S(N)(=O)=O)cc2)cc1` .
[out] inactive

[in] State the result this test recorded for `C=C1C(=O)O[C@H]2[C@H]1CC/C(COC(=O)NCc1c[nH]c3ccc(F)cc13)=C\CC[C@@]1(C)O[C@@H]21` .
[out] active
